- Test system: C. guilliermondii
observation type: MIC (µg/mL)

molecule | units symbol | quantitative readout
C[C@@H](N1CCN(c2ccc(-n3cnn(Cc4ccc(C(F)(F)F)cc4)c3=O)cc2)CC1)[C@](O)(Cn1cncn1)c1ccc(F)cc1F | µg/mL | 0.09
CCC(C)n1ncn(-c2ccc(N3CCN([C@H](C)[C@](O)(Cn4cncn4)c4ccc(F)cc4F)CC3)cc2)c1=O (stereo partly drawn) | µg/mL | 0.048
CCC(CC)n1ncn(-c2ccc(N3CCN([C@H](C)[C@](O)(Cn4cncn4)c4ccc(F)cc4F)CC3)cc2)c1=O | µg/mL | 0.048
CC(C)n1ncn(-c2ccc(N3CCN([C@H](C)[C@](O)(Cn4cncn4)c4ccc(F)cc4F)CC3)cc2)c1=O | µg/mL | 0.048
C[C@@H](N1CCN(c2ccc(-n3cnn(Cc4ccc(F)cc4F)c3=O)cc2)CC1)[C@](O)(Cn1cncn1)c1ccc(F)cc1F | µg/mL | 0.048
C[C@@H](N1CCN(c2ccc(-n3cnn(CC(F)(F)C(F)F)c3=O)cc2)CC1)[C@](O)(Cn1cncn1)c1ccc(F)cc1F | µg/mL | 0.048

###

C. guilliermondii measurements of MIC, listed per entry.
observation type: MIC

compound | target | observation type | result
CCC(C)n1ncn(-c2ccc(N3CCN(c4ccc(OCC5COC(Cn6cncn6)(c6ccc(Cl)cc6Cl)O5)cc4)CC3)cc2)c1=O (stereo not drawn) [Itraconazole, reference compound] | C. guilliermondii | MIC | 0.19 µg/mL
CC(O)Cn1ncn(-c2ccc(N3CCN([C@H](C)[C@](O)(Cn4cncn4)c4ccc(F)cc4F)CC3)cc2)c1=O (stereo partly drawn) | C. guilliermondii | MIC | 0.09 µg/mL
OC(Cn1cncn1)(Cn1cncn1)c1ccc(F)cc1F [Fluconazole, reference compound] | C. guilliermondii | MIC | 1.56 µg/mL

###

- System: C. albicans
- experiment summary: In vivo therapeutic efficacy, C. albicans systemic infection in mice
- applied conditions: Candida albicans, oral, i.v. and s.c. routes, survival vs control, read-out: Therapeutic efficacy (ED50) in mice systemic infections
Examples of molecules with documented ED50 follow.

molecule | target | rel | ED50 (mg/kg)
CCC(CC)n1ncn(-c2ccc(N3CCN([C@H](C)[C@](O)(Cn4cncn4)c4ccc(F)cc4F)CC3)cc2)c1=O | C. albicans | = | 8.01
CC(C)n1ncn(-c2ccc(N3CCN([C@H](C)[C@](O)(Cn4cncn4)c4ccc(F)cc4F)CC3)cc2)c1=O | C. albicans | = | 8.01
CC(O)Cn1ncn(-c2ccc(N3CCN([C@H](C)[C@](O)(Cn4cncn4)c4ccc(F)cc4F)CC3)cc2)c1=O (stereo partly drawn) | C. albicans | > | 90
C[C@@H](N1CCN(c2ccc(-n3cnn(Cc4ccc(C(F)(F)F)cc4)c3=O)cc2)CC1)[C@](O)(Cn1cncn1)c1ccc(F)cc1F | C. albicans | = | 1.57
CCC(C)n1ncn(-c2ccc(N3CCN([C@H](C)[C@](O)(Cn4cncn4)c4ccc(F)cc4F)CC3)cc2)c1=O (stereo partly drawn) | C. albicans | = | 4.68
C[C@@H](N1CCN(c2ccc(-n3cnn(Cc4ccc(F)cc4F)c3=O)cc2)CC1)[C@](O)(Cn1cncn1)c1ccc(F)cc1F | C. albicans | = | 56
